The reported numbers originate from patent US11130803B2.

Target: T1, recombinant human LTBP3-proTGFβ1 complex (Homo sapiens, UniProt P01137)
T1 construct: made in house; host or cells: Expi293F cells, transient co-transfection
T1 sequence (P01137 30-390): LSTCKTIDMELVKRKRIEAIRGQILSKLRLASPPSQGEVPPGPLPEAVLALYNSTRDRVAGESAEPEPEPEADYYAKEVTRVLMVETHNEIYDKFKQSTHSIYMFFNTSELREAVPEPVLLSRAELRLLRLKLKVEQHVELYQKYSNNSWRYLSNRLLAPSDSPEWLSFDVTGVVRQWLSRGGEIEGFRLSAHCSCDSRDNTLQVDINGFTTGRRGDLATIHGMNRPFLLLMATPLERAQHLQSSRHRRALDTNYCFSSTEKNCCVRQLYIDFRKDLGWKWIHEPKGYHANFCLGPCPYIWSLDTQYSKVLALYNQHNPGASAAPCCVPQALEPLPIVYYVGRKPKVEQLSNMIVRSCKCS
T1 sequence (Q9NS15 866-1039 partner limits assumed): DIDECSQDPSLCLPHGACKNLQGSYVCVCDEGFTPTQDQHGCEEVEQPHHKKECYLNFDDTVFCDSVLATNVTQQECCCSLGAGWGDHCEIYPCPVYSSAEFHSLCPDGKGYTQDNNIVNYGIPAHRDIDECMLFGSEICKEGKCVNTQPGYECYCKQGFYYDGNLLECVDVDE
Assay: Octet (Biolayer Interferometry) in vitro kinetic binding
Details: in M
resultType: (C) hLTBP3, Matrix-associated proTGFb1 (KD)
Response field accepts a number only; no unit should be typed.

Example results:
- molecule: "Ab31: monoclonal antibody; VH SEQ ID NO: 139, VL SEQ ID NO: 15 (antibody, V domains shown) VH: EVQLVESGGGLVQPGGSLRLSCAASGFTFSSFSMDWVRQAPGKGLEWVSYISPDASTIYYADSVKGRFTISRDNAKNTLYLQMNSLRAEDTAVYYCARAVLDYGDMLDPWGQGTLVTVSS VL: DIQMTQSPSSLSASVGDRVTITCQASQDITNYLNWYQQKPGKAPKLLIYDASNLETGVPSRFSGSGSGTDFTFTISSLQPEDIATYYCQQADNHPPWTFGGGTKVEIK"
  observedMeasurement: "1.81E−10"
- molecule: "Ab33: monoclonal antibody; VH SEQ ID NO: 141, VL SEQ ID NO: 15 (antibody, V domains shown) VH: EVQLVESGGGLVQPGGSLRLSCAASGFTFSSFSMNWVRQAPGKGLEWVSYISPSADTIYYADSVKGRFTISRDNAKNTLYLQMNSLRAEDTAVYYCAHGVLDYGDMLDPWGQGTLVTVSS VL: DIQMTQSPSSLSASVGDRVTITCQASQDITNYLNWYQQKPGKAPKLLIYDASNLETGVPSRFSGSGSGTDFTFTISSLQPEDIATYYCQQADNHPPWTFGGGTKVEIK"
  observedMeasurement: "1.11E−10"
- molecule: "Ab16: monoclonal antibody; VH SEQ ID NO: 247, VL SEQ ID NO: 241 (antibody, V domains shown) VH: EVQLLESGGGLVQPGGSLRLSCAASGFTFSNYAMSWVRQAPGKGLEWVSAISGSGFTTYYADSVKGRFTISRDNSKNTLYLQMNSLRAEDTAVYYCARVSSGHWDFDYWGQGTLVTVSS VL: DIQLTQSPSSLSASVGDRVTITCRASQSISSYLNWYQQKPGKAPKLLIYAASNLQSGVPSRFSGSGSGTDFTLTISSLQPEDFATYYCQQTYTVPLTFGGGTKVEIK"
  observedMeasurement: "1.32E−10"
- molecule: "Ab21: monoclonal antibody; VH SEQ ID NO: 129, VL SEQ ID NO: 15 (antibody, V domains shown) VH: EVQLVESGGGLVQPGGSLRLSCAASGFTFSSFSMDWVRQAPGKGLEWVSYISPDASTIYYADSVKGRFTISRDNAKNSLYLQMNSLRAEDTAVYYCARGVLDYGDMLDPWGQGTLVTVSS VL: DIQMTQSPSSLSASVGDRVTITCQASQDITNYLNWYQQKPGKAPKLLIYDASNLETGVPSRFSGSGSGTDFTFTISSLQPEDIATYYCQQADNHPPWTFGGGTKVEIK"
  observedMeasurement: "2.68E−10"

Would you kindly look at the next entry?
Query: (C) hLTBP3, Matrix-associated proTGFb1 (KD); subject: Ab29: monoclonal antibody; VH SEQ ID NO: 137, VL SEQ ID NO: 15 (antibody, V domains shown) VH: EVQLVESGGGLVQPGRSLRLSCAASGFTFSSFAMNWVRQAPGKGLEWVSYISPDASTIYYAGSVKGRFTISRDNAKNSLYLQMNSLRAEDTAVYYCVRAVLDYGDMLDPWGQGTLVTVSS VL: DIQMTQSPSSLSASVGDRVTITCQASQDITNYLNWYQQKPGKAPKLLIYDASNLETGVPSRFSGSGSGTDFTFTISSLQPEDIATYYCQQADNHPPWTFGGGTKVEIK
1.21E−10
